Could you please report measured %Inh for the items listed next?
System: HUNK;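 also: KINOMEscan kinase panel screen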
Condition: concentration: 1 μM, replicates: in singlicate; n = 1
Reply with just the number (in %).

### Prompt Look up %Inh: `O=C(NOCC1CC1)c1ccc(F)c(F)c1Nc1ccc(I)cc1Cl`
### Response 0

### Prompt Look up %Inh: `O=C(Nc1n[nH]c2cc(-c3cccc(F)c3)ccc12)C1CC1`
### Response 0

### Prompt Look up %Inh: `Nc1nc(-c2ccc3c(N)n[nH]c3c2)cc(N2CCCC2)n1`
### Response 0

### Prompt Look up %Inh: `COC(=O)Nc1nc2cc(Oc3ccc(NC(=O)Nc4cc(F)ccc4F)cc3)ccc2[nH]1.Cl`
### Response 20

### Prompt Look up %Inh: `CN1c2ccc(NCc3ccc(F)cc3)cc2-c2c(cnn2C)S1(=O)=O`
### Response 52

### Prompt Look up %Inh: `O=c1cc(N2CCOCC2)nc2n(Cc3cccc(F)c3)ccn12`
### Response 4

### Prompt Look up %Inh: `NS(=O)(=O)c1cccc(-c2ccc3nccc(-c4cccc(S(N)(=O)=O)c4)c3c2)c1`
### Response 17

### Prompt Look up %Inh: `O=C(NCCNc1ccnc(Nc2ccc(F)cc2)n1)Nc1ccccc1F`
### Response 0

### Prompt Look up %Inh: `COCCNC(=O)c1ccc(-c2cc(C(=O)NC3CC3)cc(F)c2C)cc1`
### Response 7
